# System Tested: Recombinant CatD (Homo sapiens (Human), UniProt P07339)
# Sequence (P07339 65-412): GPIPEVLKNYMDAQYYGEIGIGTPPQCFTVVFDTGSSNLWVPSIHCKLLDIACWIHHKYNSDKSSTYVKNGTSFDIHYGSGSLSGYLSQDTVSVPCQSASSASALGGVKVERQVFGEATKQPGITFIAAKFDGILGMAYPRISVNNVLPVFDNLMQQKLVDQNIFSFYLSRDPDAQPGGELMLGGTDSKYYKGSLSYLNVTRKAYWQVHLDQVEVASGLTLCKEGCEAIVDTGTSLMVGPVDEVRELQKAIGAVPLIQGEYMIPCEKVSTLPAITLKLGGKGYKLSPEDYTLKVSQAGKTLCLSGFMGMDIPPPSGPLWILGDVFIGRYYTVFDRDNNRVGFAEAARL
# Method Description: In vitro enzymatic Cathepsin D (CatD) FRET assay
# Conditions Used: pH 3.5, read-out: Cat D Enzyme IC50
pIC50: −log10 of the molar value.
Property: pIC50

[[record]]
compound = "Cc1cc(C#N)cnc1C#Cc1cnc(F)c([C@@]2(C)N=C(N)S[C@@]3(C(=O)N4CCOCC4)CC32)c1 (some centres unmarked) [Example 136]"
system_tested = "Recombinant CatD (Homo sapiens (Human), UniProt P07339)"
relation = "<"
readout_value = 3.40

[[record]]
compound = "Cc1cc(C#N)cnc1C#Cc1ccc(F)c([C@@]2(CF)N=C(N)S[C@@]3(C(=O)N(C)C)C[C@H]32)c1 [Example 127]"
system_tested = "Recombinant CatD (Homo sapiens (Human), UniProt P07339)"
relation = "="
readout_value = 3.01

[[record]]
compound = "N#Cc1ccc(C#Cc2ccc(F)c([C@@]3(CF)N=C(N)S[C@@]4(Cn5ccnc5)C[C@H]43)c2)nc1 [Example 125]"
system_tested = "Recombinant CatD (Homo sapiens (Human), UniProt P07339)"
relation = "="
readout_value = 3.61

[[record]]
compound = "C[C@]1(c2cc(C#Cc3ccc(C#N)cn3)ccc2F)N=C(N)S[C@]2(CO)[C@H]1C2(F)F [Example 110]"
system_tested = "Recombinant CatD (Homo sapiens (Human), UniProt P07339)"
relation = "="
readout_value = 2.93

[[record]]
compound = "Cc1cc(C#N)cnc1C#Cc1ccc(F)c([C@@]2(C)N=C(N)S[C@@]3(C(=O)N4CCCC4)C[C@H]32)c1 [Example 128]"
system_tested = "Recombinant CatD (Homo sapiens (Human), UniProt P07339)"
relation = "="
readout_value = 3.29

[[record]]
compound = "Cc1cc(C#N)cnc1C#Cc1ccc(F)c([C@@]2(CF)N=C(N)S[C@@]3(/C=C/C(=O)N4CCOCC4)C[C@H]32)c1 [Example 116]"
system_tested = "Recombinant CatD (Homo sapiens (Human), UniProt P07339)"
relation = "="
readout_value = 3.76

[[record]]
compound = "Cc1cc(OCc2ncco2)cnc1C#Cc1ccc(F)c([C@@]2(C)N=C(N)S[C@@]3(C(=O)N(C)C)C[C@H]32)c1 [Example 131]"
system_tested = "Recombinant CatD (Homo sapiens (Human), UniProt P07339)"
relation = "="
readout_value = 3.00

[[record]]
compound = "Cc1cc(C#N)cnc1C#Cc1ccc(F)c([C@@]2(CF)N=C(N)S[C@@]3(CF)C[C@H]32)c1 [Example 104]"
system_tested = "Recombinant CatD (Homo sapiens (Human), UniProt P07339)"
relation = "="
readout_value = 2.88

[[record]]
compound = "Cc1cn(C[C@]23C[C@H]2[C@@](CF)(c2cc(C#Cc4ccc(C#N)cn4)ccc2F)N=C(N)S3)nn1 [Example 115]"
system_tested = "Recombinant CatD (Homo sapiens (Human), UniProt P07339)"
relation = "="
readout_value = 2.99

[[record]]
compound = "Cc1cc(C#N)cnc1C#Cc1ccc(F)c([C@@]2(CF)N=C(N)S[C@@]3(CCC(=O)N4CCOCC4)C[C@H]32)c1 [Example 120]"
system_tested = "Recombinant CatD (Homo sapiens (Human), UniProt P07339)"
relation = "="
readout_value = 3.72

[[record]]
compound = "N#Cc1ccc(C#Cc2ccc(F)c([C@@]3(CF)N=C(N)S[C@@]4(CCC(=O)N5CCOCC5)C[C@H]43)c2)nc1 [Example 119]"
system_tested = "Recombinant CatD (Homo sapiens (Human), UniProt P07339)"
relation = "="
readout_value = 3.73

[[record]]
compound = "CC#CCOc1ccc(C#Cc2ccc(F)c([C@@]3(CF)N=C(N)S[C@@]4(CF)C[C@H]43)c2)nc1 [Example 105]"
system_tested = "Recombinant CatD (Homo sapiens (Human), UniProt P07339)"
relation = "="
readout_value = 3.30

[[record]]
compound = "CN(C)C(=O)[C@]12C[C@H]1[C@@](C)(c1cc(C#Cc3ccc(C#N)cc3)ccc1F)N=C(N)S2 [Example 129]"
system_tested = "Recombinant CatD (Homo sapiens (Human), UniProt P07339)"
relation = "="
readout_value = 3.54

[[record]]
compound = "Cc1cc(C#N)cnc1C#Cc1ccc(F)c([C@@]2(C)N=C(N)S[C@@]3(C(=O)N(C)C)C[C@H]32)c1 [Example 123]"
system_tested = "Recombinant CatD (Homo sapiens (Human), UniProt P07339)"
relation = "="
readout_value = 3.63

